The following sequences are listed with their measured recombinant UMI read abundance (log10) values.
experiment: recombinant UMI read abundance after kanamycin selection (control-corrected) (log10(CPM+1)); higher = more efficient recombination; extreme values may be limits of the assay; sequences stand for … in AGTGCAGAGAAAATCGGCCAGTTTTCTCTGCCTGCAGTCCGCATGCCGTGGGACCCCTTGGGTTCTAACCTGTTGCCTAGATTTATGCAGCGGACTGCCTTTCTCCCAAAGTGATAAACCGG…AGGTTGGTTTCACT; site = the 11-nt donor;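 further: IS621 bridge recombinase in Escherichia coli cells against a fixed T5 target plasmid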

construct-sequence | recombinant UMI read abundance (log10)
GACTATCCATGGACCGGTTTTCCCGGTAATCCGTATTTGCT (site GACTATCCTAG) | 1.29
CTGGTAACATGGACCGGTTTTCCCGGTAATCCGTATTTGCA (site CTGGAAACTTG) | 1.03
TGTAAATCATGGACCGGTTTTCCCGGTAATCCGTATTTGTT (site TGTAAATCTAA) | 1.13
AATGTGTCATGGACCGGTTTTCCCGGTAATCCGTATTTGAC (site AATGCGTCTGT) | 0
CGTGAGTCATGGACCGGTTTTCCCGGTAATCCGTATTTGCC (site CGAGAGTCTGG) | 1.79
